Below, each entry is listed with its recorded Activity.
Target: Protein cereblon/Mitogen-activated protein kinase 14 (Homo sapiens, UniProt Q16539+Q96SW2)
Sequence (Q16539 2-360 limits assumed): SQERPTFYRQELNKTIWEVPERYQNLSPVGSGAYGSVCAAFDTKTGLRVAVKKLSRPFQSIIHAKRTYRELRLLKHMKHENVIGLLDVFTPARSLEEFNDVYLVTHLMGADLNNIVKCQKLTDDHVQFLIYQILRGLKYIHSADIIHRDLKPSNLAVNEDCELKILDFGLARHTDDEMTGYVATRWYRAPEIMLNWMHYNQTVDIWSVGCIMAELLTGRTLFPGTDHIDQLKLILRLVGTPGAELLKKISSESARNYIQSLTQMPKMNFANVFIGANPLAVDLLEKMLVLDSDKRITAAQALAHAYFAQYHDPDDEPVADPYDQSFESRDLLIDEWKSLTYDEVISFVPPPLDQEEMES
Sequence (Q96SW2 whole entry partner): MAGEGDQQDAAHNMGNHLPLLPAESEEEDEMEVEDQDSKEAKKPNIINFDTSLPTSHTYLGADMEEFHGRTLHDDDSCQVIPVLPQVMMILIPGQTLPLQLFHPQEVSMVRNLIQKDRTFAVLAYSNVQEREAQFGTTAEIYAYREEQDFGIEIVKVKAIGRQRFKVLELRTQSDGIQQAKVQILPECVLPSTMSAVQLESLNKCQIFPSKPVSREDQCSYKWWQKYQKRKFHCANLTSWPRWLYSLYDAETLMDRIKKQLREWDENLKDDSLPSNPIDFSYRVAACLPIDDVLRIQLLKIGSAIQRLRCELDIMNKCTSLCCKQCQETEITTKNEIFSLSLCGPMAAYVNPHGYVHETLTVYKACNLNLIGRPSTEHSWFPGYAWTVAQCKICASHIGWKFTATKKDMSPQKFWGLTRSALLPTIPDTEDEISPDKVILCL
Assay: Protac activity at CRBN/p38alpha in human BBL358 cells assessed as p38alpha degradation at 10 uM measured after 24 hrs by immunoblotting analysis
Assay type: cell-based

Molecule	Activity [%]
Cc1ccc(C(=O)NCCCCc2cn(CCCC(=O)NCCOCCOCCNc3cccc4c3C(=O)N(C3CCC(=O)NC3=O)C4=O)nn2)cc1-n1c(C)cc(OCc2ccc(F)cc2F)c(Br)c1=O (stereo unspecified)	79
Cc1ccc(C(=O)NCCCCc2cn(CCCC(=O)NCCCCCCNc3cccc4c3C(=O)N(C3CCC(=O)NC3=O)C4=O)nn2)cc1-n1c(C)cc(OCc2ccc(F)cc2F)c(Br)c1=O (stereo unspecified)	67
Cc1ccc(C(=O)NCCc2cn(CCCC(=O)NCCCNc3cccc4c3C(=O)N(C3CCC(=O)NC3=O)C4=O)nn2)cc1-n1c(C)cc(OCc2ccc(F)cc2F)c(Br)c1=O (stereo unspecified)	36
Cc1ccc(C(=O)NCCCCc2cn(CCCC(=O)NCCCNc3cccc4c3C(=O)N(C3CCC(=O)NC3=O)C4=O)nn2)cc1-n1c(C)cc(OCc2ccc(F)cc2F)c(Br)c1=O (stereo unspecified)	74
Cc1ccc(C(=O)NCCCCc2cn(CCCC(=O)NCCCCNc3cccc4c3C(=O)N(C3CCC(=O)NC3=O)C4=O)nn2)cc1-n1c(C)cc(OCc2ccc(F)cc2F)c(Br)c1=O (stereo unspecified)	84
Cc1ccc(C(=O)NCCc2cn(CCCC(=O)NCCCCNc3cccc4c3C(=O)N(C3CCC(=O)NC3=O)C4=O)nn2)cc1-n1c(C)cc(OCc2ccc(F)cc2F)c(Br)c1=O (stereo unspecified)	40

---

Target: Protein cereblon/Mitogen-activated protein kinase 14 (Homo sapiens, UniProt Q16539+Q96SW2)
Assay: Protac activity at CRBN/p38alpha in human T47D cells assessed as p38alpha degradation at 10 uM measured after 24 hrs by immunoblotting analysis
Format: cell-based
Measure: Activity (%)

Molecule	Readout Unit	Reported Value
Cc1ccc(C(=O)NCCCc2cn(CCCC(=O)NCCCNc3cccc4c3C(=O)N(C3CCC(=O)NC3=O)C4=O)nn2)cc1-n1c(C)cc(OCc2ccc(F)cc2F)c(Br)c1=O (stereo not given)	%	68
Cc1ccc(C(=O)NCCCCc2cn(CC[C@H](NC(=O)OC(C)(C)C)C(=O)NCCCCNc3cccc4c3C(=O)N(C3CCC(=O)NC3=O)C4=O)nn2)cc1-n1c(C)cc(OCc2ccc(F)cc2F)c(Br)c1=O (stereo not given in full)	%	93
Cc1ccc(C(=O)NCCCCc2cn(CC[C@H](N)C(=O)NCCCCNc3cccc4c3C(=O)N(C3CCC(=O)NC3=O)C4=O)nn2)cc1-n1c(C)cc(OCc2ccc(F)cc2F)c(Br)c1=O (stereo not given in full)	%	4
Cc1ccc(C(=O)NCCCCc2cn(CCCC(=O)NCCOCCOCCNc3cccc4c3C(=O)N(C3CCC(=O)NC3=O)C4=O)nn2)cc1-n1c(C)cc(OCc2ccc(F)cc2F)c(Br)c1=O (stereo not given)	%	85
Cc1ccc(C(=O)NCCc2cn(CCCC(=O)NCCCCNc3cccc4c3C(=O)N(C3CCC(=O)NC3=O)C4=O)nn2)cc1-n1c(C)cc(OCc2ccc(F)cc2F)c(Br)c1=O (stereo not given)	%	25

---

Target: Protein cereblon/Mitogen-activated protein kinase 14 (Homo sapiens, UniProt Q16539+Q96SW2)
Test: Protac activity at CRBN/p38alpha in human T47D cells assessed as p38alpha degradation at 10 uM measured after 24 hrs by immunoblotting analysis
Assay type: cell-based

Compound	Readout Unit	Activity
Cc1ccc(C(=O)NCCCCc2cn(CCCC(=O)NCCCNc3cccc4c3C(=O)N(C3CCC(=O)NC3=O)C4=O)nn2)cc1-n1c(C)cc(OCc2ccc(F)cc2F)c(Br)c1=O (stereo not drawn)	%	87
Cc1ccc(C(=O)NCCc2cn(CCCC(=O)NCCCNc3cccc4c3C(=O)N(C3CCC(=O)NC3=O)C4=O)nn2)cc1-n1c(C)cc(OCc2ccc(F)cc2F)c(Br)c1=O (stereo not drawn)	%	42
Cc1ccc(C(=O)NCCCc2cn(CCCC(=O)NCCCCNc3cccc4c3C(=O)N(C3CCC(=O)NC3=O)C4=O)nn2)cc1-n1c(C)cc(OCc2ccc(F)cc2F)c(Br)c1=O (stereo not drawn)	%	91

---

Target: Protein cereblon/Mitogen-activated protein kinase 14 (Homo sapiens, UniProt Q16539+Q96SW2)
Assay: Protac activity at CRBN/p38alpha in human T47D cells assessed as p38alpha degradation at 10 uM measured after 24 hrs by immunoblotting analysis
Type: cell-based
Below, each entry is listed with its recorded Activity.
Measure: Activity (%)

Compound	Target System	Readout Unit	Reported Value
Cc1ccc(C(=O)NCCCCc2cn(CCCC(=O)NCCOCCOCCNc3cccc4c3C(=O)N(C3CCC(=O)N(Cc5ccccc5[N+](=O)[O-])C3=O)C4=O)nn2)cc1-n1c(C)cc(OCc2ccc(F)cc2F)c(Br)c1=O (stereo not drawn)	Protein cereblon/Mitogen-activated protein kinase 14 (Homo sapiens, UniProt Q16539+Q96SW2)	%	20
Cc1ccc(C(=O)NCCCCc2cn(CCCC(=O)NCCCCCNc3cccc4c3C(=O)N(C3CCC(=O)NC3=O)C4=O)nn2)cc1-n1c(C)cc(OCc2ccc(F)cc2F)c(Br)c1=O (stereo not drawn)	Protein cereblon/Mitogen-activated protein kinase 14 (Homo sapiens, UniProt Q16539+Q96SW2)	%	82
Cc1ccc(C(=O)NCCCCc2cn(CCCC(=O)NCCOCCOCCNC(=O)c3ccc4c(c3)C(=O)N(C3CCC(=O)N(Cc5ccccc5[N+](=O)[O-])C3=O)C4=O)nn2)cc1-n1c(C)cc(OCc2ccc(F)cc2F)c(Br)c1=O (stereo not drawn)	Protein cereblon/Mitogen-activated protein kinase 14 (Homo sapiens, UniProt Q16539+Q96SW2)	%	76

---

Molecular target: Protein cereblon/Mitogen-activated protein kinase 14 (Homo sapiens, UniProt Q16539+Q96SW2)
Assay: Protac activity at CRBN/p38alpha in human BBL358 cells assessed as p38alpha degradation at 10 uM measured after 24 hrs by immunoblotting analysis
Type: cell-based
# Activity >= 80% gives Y, anything below gives N

Molecule	Assigned Class
Cc1ccc(C(=O)NCCCc2cn(CCCC(=O)NCCCCNc3cccc4c3C(=O)N(C3CCC(=O)NC3=O)C4=O)nn2)cc1-n1c(C)cc(OCc2ccc(F)cc2F)c(Br)c1=O (stereo not given)	Y
Cc1ccc(C(=O)NCCCCc2cn(CCCC(=O)NCCNc3cccc4c3C(=O)N(C3CCC(=O)NC3=O)C4=O)nn2)cc1-n1c(C)cc(OCc2ccc(F)cc2F)c(Br)c1=O (stereo not given)	N
Cc1ccc(C(=O)NCCCCc2cn(CCOCCOCCOCCOCCNc3cccc4c3C(=O)N(C3CCC(=O)NC3=O)C4=O)nn2)cc1-n1c(C)cc(OCc2ccc(F)cc2F)c(Br)c1=O (stereo not given)	Y
Cc1ccc(C(=O)NCCCc2cn(CCCC(=O)NCCCNc3cccc4c3C(=O)N(C3CCC(=O)NC3=O)C4=O)nn2)cc1-n1c(C)cc(OCc2ccc(F)cc2F)c(Br)c1=O (stereo not given)	N
